- System: rhP2X7 receptor
- measurement description: calcium flux protocol for high throughput screen using cells that express the rhP2X7 receptor
- Format: cell-based, Macaca mulatta (Rhesus monkey)
- conditions used: agonist used in the example screening protocol; source of the value not stated
quantity measured: EC50 (µM)
Numeric only. Scale: µM

Q) Find the measured EC50 of "Nc1ncnc2c1ncn2[C@@H]1O[C@H](COP(=O)(O)CP(=O)(O)OP(=O)(O)O)[C@@H](O)[C@H]1O" with rhP2X7 receptor as test system.
A) 350
